# assayed_target: T1, APBA2_2, Q99767
# T1 sequence (Q99767 654-744, limits assumed, looked up): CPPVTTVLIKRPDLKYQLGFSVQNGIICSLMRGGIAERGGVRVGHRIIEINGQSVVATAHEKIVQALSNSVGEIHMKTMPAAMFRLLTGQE
# test_details: holdup assay
# Design: key: below the threshold = too weak to quantify, mostly under pKd 3.1 to 4
# assay_context: plain residues with an end cap or a label only (N-terminal biotin on a linker: ado-ado)
attribute_measured: pKd

                                   binder               result
0            TETASVCTKV [SLC23A1, Q9UHI7]  below the threshold
1              FVHPILQSAV [PRKCA, P17252]  below the threshold
2          GFGEERESIL [KIDINS220, Q9ULH0]  below the threshold
3  QKNKDKEYYV [NRXN3_rs746444206, Q9Y4C0]  below the threshold
